// percent response (negative = inhibition) lookup, one value per entry
- MEASUREMENT_TARGET: Beta-adrenergic receptor kinase 1 (Homo sapiens) (UniProt P25098)
- Sequence (P25098 whole entry, looked up): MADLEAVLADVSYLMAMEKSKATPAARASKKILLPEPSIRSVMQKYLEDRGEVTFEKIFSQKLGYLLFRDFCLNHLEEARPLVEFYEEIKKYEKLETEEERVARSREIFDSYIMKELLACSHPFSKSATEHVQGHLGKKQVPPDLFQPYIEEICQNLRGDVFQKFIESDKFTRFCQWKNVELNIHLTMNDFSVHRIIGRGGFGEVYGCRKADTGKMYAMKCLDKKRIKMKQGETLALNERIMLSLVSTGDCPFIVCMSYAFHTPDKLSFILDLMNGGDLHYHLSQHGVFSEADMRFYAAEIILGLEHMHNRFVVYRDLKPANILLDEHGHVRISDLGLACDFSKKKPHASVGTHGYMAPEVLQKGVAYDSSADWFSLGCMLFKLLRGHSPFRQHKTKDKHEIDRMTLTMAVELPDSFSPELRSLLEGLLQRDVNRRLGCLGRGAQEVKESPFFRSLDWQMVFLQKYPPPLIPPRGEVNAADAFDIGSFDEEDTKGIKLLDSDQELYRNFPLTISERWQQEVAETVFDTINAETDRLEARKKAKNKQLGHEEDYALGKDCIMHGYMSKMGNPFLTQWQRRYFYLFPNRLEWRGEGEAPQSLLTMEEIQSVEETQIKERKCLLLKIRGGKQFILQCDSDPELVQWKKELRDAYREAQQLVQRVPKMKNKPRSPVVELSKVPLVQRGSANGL
- PROTOCOL: inhibition of GRK2-catalyzed rhodopsin phosphorylation – biochemical, set 1, orthogonal assay for GRK2 aptamer-displacement inhibitor project, late-stage follow-up (AID 588465)
- EXPERIMENTAL_CONDITIONS: 32P incorporation, ROS, at 200 µM, stronger effect = lower value
MEASURED_PARAMETER: percent response (negative = inhibition) (%)

Cc1cc(=O)[nH]c(SCC(=O)NCc2ccco2)n1; -17.7
O=C(CCS(=O)(=O)c1ccc(Br)cc1)NCCc1ccc(Cl)cc1; -35.6
O=C(CCS(=O)(=O)c1ccc(Br)cc1)Nc1cc(F)ccc1F; -37.5
Cc1cc2ccccc2n1CCNC(=O)c1cccs1; -42.4
COc1ccc(CNC(=O)CCS(=O)(=O)c2ccc(Br)cc2)cc1; -59.5
O=C(O)C1CC(=O)N(c2ccc3c(c2)OCCO3)C1 (stereo not given); -77.7
Cc1ccccc1NC(=O)CCS(=O)(=O)c1ccc(Br)cc1; -12.6
CCOc1ccc(CCNC(=O)CCS(=O)(=O)c2ccc(Br)cc2)cc1OCC; -69.7
Cc1cccc(N2CCN(C(=O)CCS(=O)(=O)c3ccc(Br)cc3)CC2C)c1 (stereo not given); -24
CCc1ccccc1NC(=O)CCS(=O)(=O)c1ccc(Br)cc1; -26
